Tested on: TTR mRNA
experimental.details: TTR mRNA knockdown (quantitative PCR) in primary human hepatocytes treated with LNPs
Format: cell-based
experimental.context: PHH; LNP dose 300 ng mRNA cargo; gRNA:mRNA 1:2; 96 h; biological triplicates; vs untreated control
Strand notation (5' to 3'): a small letter for the sugar, then the base; units joined by * are phosphorothioate-linked, units joined directly phosphodiester-linked; [ ] holds rarer units or linkages, { } end groups; capitals alone tell only the bases. m = 2'-O-methyl; r = 2'-OH (RNA)
Classify: MET when Avg % Knockdown (TTR mRNA) is strictly less than 90%; NOT MET when Avg % Knockdown (TTR mRNA) is not.

* G000572: TTR sgRNA modified sequence, Human, SEQ ID NO: 113; guide sequence of CR003385 (nucleic acid) guide: mC*mC*mC*rCrUrArCrUrCrCrUrArUrUrCrCrArCrCrArGrUrUrUrUrArGrAmGmCmUmAmGmAmAmAmUmAmGmCrArArGrUrUrArArArArUrArArGrGrCrUrArGrUrCrCrGrUrUrArUrCrAmAmCmUmUmGmAmAmAmAmAmGmUmGmGmCmAmCmCmGmAmGmUmCmGmGmUmGmCmU*mU*mU*mU | MET
* G000571: TTR sgRNA modified sequence, Human, SEQ ID NO: 112; guide sequence of CR005301 (nucleic acid) guide: mG*mU*mC*rArCrArGrArArArCrArCrUrCrArCrCrGrUrGrUrUrUrUrArGrAmGmCmUmAmGmAmAmAmUmAmGmCrArArGrUrUrArArArArUrArArGrGrCrUrArGrUrCrCrGrUrUrArUrCrAmAmCmUmUmGmAmAmAmAmAmGmUmGmGmCmAmCmCmGmAmGmUmCmGmGmUmGmCmU*mU*mU*mU | NOT MET
* G000484: TTR sgRNA modified sequence, Human, SEQ ID NO: 91; guide sequence of CR003367 (nucleic acid) guide: mA*mG*mA*rCrArCrCrArArArUrCrUrUrArCrUrGrGrArGrUrUrUrUrArGrAmGmCmUmAmGmAmAmAmUmAmGmCrArArGrUrUrArArArArUrArArGrGrCrUrArGrUrCrCrGrUrUrArUrCrAmAmCmUmUmGmAmAmAmAmAmGmUmGmGmCmAmCmCmGmAmGmUmCmGmGmUmGmCmU*mU*mU*mU | MET
* G000482: TTR sgRNA modified sequence, Human, SEQ ID NO: 89; guide sequence of CR003365 (nucleic acid) guide: mU*mG*mU*rArGrArArGrGrGrArUrArUrArCrArArArGrGrUrUrUrUrArGrAmGmCmUmAmGmAmAmAmUmAmGmCrArArGrUrUrArArArArUrArArGrGrCrUrArGrUrCrCrGrUrUrArUrCrAmAmCmUmUmGmAmAmAmAmAmGmUmGmGmCmAmCmCmGmAmGmUmCmGmGmUmGmCmU*mU*mU*mU | MET

Hello, the source for this data is patent US20230035659A1, in case you need it.
